- Tested on: HCC 2998
- test_method_notes: NCI tumour cell line growth inhibition, 48 h
Active and inactive are the calls of the source. No stated cut-off is given here; in the data, active = GI50 up to about 1.1 µM and inactive = higher.
Record form. Attribute: GI50. Fill in for each entry.

Request: Specify measured GI50 for CCCCCCCCP(=O)(O)OP(=O)(O)OCC1OC(n2ccc(N)nc2=O)C(O)C1O (stereo not given) .
Result: > 100 µM (inactive)

Request: For C=C(C)C1CC=C(C)CC1 (stereo not given) , write its GI50.
Result: 973 µM (inactive)

Request: State its GI50: CC(C)C1OC(=O)/C=C/C=C/C=C/C=C/C=C/CC(O)C(C)C(O)CC(O)CC(O)CC(O)CC(O)CC(O)CC(O)/C=C/C1C (stereo not given)
Result: > 100 µM (inactive)

Request: Answer with the recorded GI50 for the molecule listed here: CC(Br)C(=O)c1ccc2cc(Br)c3ccccc3c2c1 (stereo not given)
Result: 15.7 µM (inactive)

Request: State, in one line, measured GI50 of `Cc1nc2c(nc1C)-c1c(c3c(n1Cc1ccccc1)C(=O)CCC3)C(=O)C2=O`
Result: 2.86 µM (inactive)

###

- Tested on: MCF7
- test_method_notes: NCI tumour cell line growth inhibition, 48 h
The source made the active and inactive calls. Cut-off read from the data, not from the text of the source: active = GI50 up to about 1.1 µM and inactive = higher.
measured_attribute: GI50

Request: Tell me GI50 reported for `O=[N+]([O-])C(=C/C1CCCCC1)/C(=C\C1CCCCC1)[N+](=O)[O-]`
Result: 5.3 µM (inactive)

Request: For the molecule `Oc1c(C2=N[C@H]3CCCC[C@@H]3N2)ccc2ccccc12` , report GI50.
Result: > 100 µM (inactive)

Request: Given `O=c1[nH]/c(=C/c2ccc(OCc3ccccc3)cn2)c(=O)[nH]/c1=C/c1ccc([N+](=O)[O-])cc1` , respond with its GI50.
Result: > 100 µM (inactive)

Request: Retrieve GI50 measured for `Cc1c2c(nc3ccccc13)C(=O)c1cccnc1C2=O` and print it.
Result: 4.89 µM (inactive)

Request: Let me know recorded GI50 for `O=c1[nH]c(=O)c2c([nH]1)[nH]c1ccc(Br)cc12` , thanks.
Result: 69 µM (inactive)

###

- Tested on: SW-620
- test_method_notes: NCI tumour cell line growth inhibition, 48 h
Calls of active or inactive are those of the source. Rule as the data show it: active = GI50 up to about 1.1 µM and inactive = higher.
measured_attribute: GI50

Request: Please give the documented GI50 of `COc1cc(/C=C/C(=O)O)ccc1C(=O)O/C=C/c1ccccc1`
Result: > 100 µM (inactive)

Request: Kindly indicate its recorded GI50. Item: C=C(C)C1CC=C(C)CC1 (stereo unspecified)
Result: 895 µM (inactive)

Request: Fill in reported GI50 for this entry: C/C=C1/C=CC2c3[nH]c4ccccc4c3CCN2C1 (stereo unspecified)
Result: > 400 µM (inactive)

Request: Assign GI50 to the following record: CC(C)=CCC12Cc3ccc(O)cc3C(C(C)CN1)C2C (stereo unspecified)
Result: > 100 µM (inactive)

Request: Supply measured GI50 of `COC(=O)c1cc(CC2Cc3cc4c(cc3C2)CCC4)cc2c1CCC2` in your reply.
Result: > 100 µM (inactive)

Request: Supply measured GI50 of `O=c1[nH]/c(=C/c2ccc(OCc3ccccc3)cn2)c(=O)[nH]/c1=C/c1ccc([N+](=O)[O-])cc1` in your reply.
Result: > 100 µM (inactive)

Request: Provide only the value of recorded GI50 for `CC(C)CNC(=O)O`
Result: > 100 µM (inactive)

Request: Tell us which GI50 value is on record for CCn1cc(/C=C/C(C)c2cn(CC)c(=O)[nH]c2=O)c(=O)[nH]c1=O (stereo unspecified)
Result: > 100 µM (inactive)

Request: Note down GI50 recorded for CC(C)=CCc1c(C)cc2cc3c(c(O)c2c1O)C(=O)C=C(O)C3(CC=C(C)C)C/C=C(\C)CO (stereo unspecified)
Result: 39.8 µM (inactive)

Request: Look up GI50 of `CCOC(=O)/C=C/[C@H](O)[C@@H](O)/C=C/C(=O)OCC` and report it.
Result: 17 µM (inactive)

Request: Quick one: give measured GI50 for CCN(CC)CC(C(C)=O)C(c1ccccc1)c1c(O)c2ccccc2oc1=O (stereo unspecified)
Result: > 100 µM (inactive)

###

Would you mind telling me the reported GI50 of each entry?
- Tested on: M19-MEL
- test_method_notes: NCI tumour cell line growth inhibition, 48 h
The source made the active and inactive calls. No stated cut-off is given here; in the data, active = GI50 up to about 1.1 µM and inactive = higher.

Request: Answer with the recorded GI50 for the molecule listed here: Cn1c(=O)c(C(c2ccc([N+](=O)[O-])cc2)c2c(O)c3ccccc3n(C)c2=O)cc2ccccc21 (stereo not given)
Result: 35.5 µM (inactive)

Request: Please give measured GI50 of the following entry: `N#CC(C#N)=Cc1ccc(CP(=O)(O)O)cc1`
Result: > 100 µM (inactive)

Request: Using the record for `COc1ccc2c(c1)[n+]([O-])c(-c1ccc(Cl)c(Cl)c1)c(N)[n+]2[O-]` , state its measured GI50.
Result: 28.8 µM (inactive)

Request: Report measured GI50; entry is `COC(=O)[C@@H]1C(=O)O[C@@H](c2ccc3c(c2)OCO3)[C@@H]1C(=O)OC.COC(=O)[C@H]1C(=O)O[C@@H](c2ccc3c(c2)OCO3)[C@@H]1C(=O)OC`
Result: > 100 µM (inactive)

Request: Item `Cc1ccccc1C1=[N+]([O-])c2ccccc2C1=O` : provide GI50
Result: 15.2 µM (inactive)

###

Give measured GI50 for each item. Keep answers brief.
- Tested on: SNB-78
- test_method_notes: NCI tumour cell line growth inhibition, 48 h
The source made the active and inactive calls. Cut-off read from the data, not from the text of the source: active = GI50 up to about 1.1 µM and inactive = higher.

Request: State GI50 (SNB-78) of `COc1cc(/C=C/C(=O)O)ccc1C(=O)O/C=C/c1ccccc1` .
Result: > 100 µM (inactive)

Request: Give GI50; test system SNB-78; compound COC(=O)C1[C@H](c2cc(OC)c(OC)c(OC)c2)OC(=O)C1(C(=O)OC)C(=O)c1ccc2c(c1)OCO2 (stereo partly specified)
Result: > 100 µM (inactive)

Request: Report GI50 from SNB-78 testing of N#CC12CC3(CCC1CCC1(C2)OCCO1)OCCO3 (stereo unspecified)
Result: > 100 µM (inactive)

Request: Report GI50 under test system SNB-78 for `COc1ccccc1/C=C\c1cc(OC)c(OC)c(OC)c1` .
Result: 28.3 µM (inactive)

Request: Using SNB-78 as the test system, report measured GI50 of CN(C)CCN(C)C(=O)C1CCCN1C(=O)OCc1ccccc1 (stereo unspecified) .
Result: > 100 µM (inactive)

Request: For SNB-78, give the measured GI50 of the entry `CN(C)c1ccc(/C=c2\sc3nc4ccccc4n3c2=O)cc1`
Result: > 100 µM (inactive)

###

- Tested on: OVCAR-3
- test_method_notes: NCI tumour cell line growth inhibition, 48 h
Activity calls are given as the source filed them. Cut-off read from the data, not from the text of the source: active = GI50 up to about 1.1 µM and inactive = higher.
measured_attribute: GI50

Request: Respond only with GI50 recorded for C/C=C1\CN2CCc3c([nH]c4ccccc34)C2CC1CCO (stereo not given)
Result: > 100 µM (inactive)

Request: In one line, give reported GI50 of the entry `CC(=O)c1sc2c(c1OC(=O)c1ccccc1)c(=O)n(-c1ccccc1)c(=S)n2-c1ccccc1` .
Result: 17.9 µM (inactive)

Request: Read the entry `O=C1Oc2ccccc2C(=O)/C1=C/NC(=S)NCc1ccccc1` and write its reported GI50.
Result: > 100 µM (inactive)

Request: Identify the reported GI50 for the following entry. `COC(=O)c1cc(CC2Cc3cc4c(cc3C2)CCC4)cc2c1CCC2`
Result: > 100 µM (inactive)

Request: Name the recorded GI50 of the compound listed here: `COCCCN(Cc1cc(OC)c(OC)c(OC)c1)C(=S)Nc1cccc(Cl)c1`
Result: 41.6 µM (inactive)

###

- Tested on: DMS-273
- test_method_notes: NCI tumour cell line growth inhibition, 48 h
Calls of active or inactive are those of the source. Rule as the data show it: active = GI50 up to about 1.1 µM and inactive = higher.
Lab note: assign the record to one of Yes = active, No = inactive

Request: Which result was noted for this compound in the test: `c1ccc(/N=C2\c3ccccc3C3=NCCCN32)cc1`
Result: No

Request: Lab log entry: C/C=C1/C=CC2c3[nH]c4ccccc4c3CCN2C1 (centres undefined) — outcome as called in the assay?
Result: No

Request: For O=C1C2=C(C3=NCCc4c[nH]c1c43)C1(C=C(Br)C(O)C(Br)=C1)CCN2 (centres undefined) , what call appears in the results of this test?
Result: Yes

Request: Can you look up the reported call for `Cc1ccccc1NC(=O)CC(=O)NNCC(=O)Nc1nnc(-c2ccccc2)s1` for me?
Result: No

Request: Kindly provide the recorded test outcome for the following compound: Cc1c(N)nc([C@H](CC(N)=O)NC[C@H](N)C(N)=O)nc1C(=O)N[C@H](C(=O)N[C@H](C)[C@@H](O)[C@H](C)C(=O)N[C@H](C(=O)NCCc1nc(-c2nc(C(=O)NCCC[S+](C)C)cs2)cs1)[C@@H](C)O)C(OC1OC(CO)C(O)C(O)C1OC1OC(CO)C(O)C(OC(N)=O)C1O)c1c[nH]cn1 (some centres undefined)
Result: Yes

Request: Could you check what this test reported for O=C1CC(C2(O)C(=O)Nc3ccc([N+](=O)[O-])cc32)c2ccccc21 (centres undefined) ?
Result: No

Request: Identify the outcome logged in this assay for the compound shown: `CC(C)C1=Cc2ccc3c(c2C(=O)C1=O)CCCC3(C)C`
Result: No

Request: What classification did CCSC1(SCC)CC(Cc2ccc(OC)cc2)N(/C=N/C(C)(C)C)C1 (centres undefined) end up with in this test?
Result: No

Request: Field: outcome | Entry: `O=C(NCCOCCO)c1ccc(O)cc1`
Result: No
